Record form. Attribute: GI50. Fill in for each entry.
Test system: PC-3
experimental_protocol: Growth inhibition of human PC3 cells
Assay type: functional
Just the number in nM, nothing appended.

Query :: Short answer please: GI50, PC-3, entry "O=C1/C(=C\c2coc3ccccc3c2=O)c2ccccc2N1c1c(Cl)cccc1Cl"
Result :: 1300

Query :: Short answer please: GI50, PC-3, entry "O=C1/C(=C\c2ccccn2)c2ccccc2N1c1c(Cl)cccc1Cl"
Result :: 2200

Query :: Short answer please: GI50, PC-3, entry "O=C1Nc2ccccc2/C1=C/c1cn(C(=O)c2c(Cl)cccc2Cl)c2ccccc12"
Result :: 2400

Query :: Short answer please: GI50, PC-3, entry "CC1=NN(c2cccc(Cl)c2)C(=O)/C1=C\C=C\c1ccccc1"
Result :: 2900

Data origin: ChEMBL document CHEMBL1811814
